System: Fibroblast
Experiment: Multiplex assay against human fibroblast
Format: toxicity, cell-based
Conditions: 12 h, 1 µM, compound concentration 1 uM, replicate 2
Measured Population Apoptotic (%) by item
Please append the unit to your numeric answer.

NC(=O)c1ccc2nc(-c3ccc(C4(N)CCC4)cc3)c(-c3ccccc3)n2n1 [BAY-1125976]: 87%
Cl.NC[C@@H]1O[C@H](C23CC4CC(CC(C4)C2)C3)Cc2c1ccc(O)c2O: 0%
Cc1ccc(NC(=O)Nc2cc(C(F)(F)F)ccc2F)cc1Nc1ccc2c(c1)NC(=O)/C2=C\c1ccc[nH]1: 100%
CCCc1cc(C)[nH]c(=O)c1CNC(=O)c1cc(-c2ccc(N3CCN(C(C)C)CC3)nc2)cc2c1cnn2C(C)C: 20%
Oc1cccc(-c2nc(N3CCOCC3)c3oc4ncccc4c3n2)c1 [PI-103]: 47%

input: Can you look up the measured Population Apoptotic (%) of "N#Cc1cccc(C(=O)Nc2cc(-c3ccccc3)nn2-c2ccccc2)c1" for me?
output: 16%

input: Can you look up the measured Population Apoptotic (%) of "CC(C)c1cc(Nc2nc(N3CCC[C@H](N)C3)ncc2C(N)=O)cc(C(C)C)n1" for me?
output: 44%

input: Can you look up the measured Population Apoptotic (%) of Cl.Cn1c2c(c3ccc(Cl)c(Cl)c31)C(C#N)C1(CCNCC1)NC2=O (centres undefined) for me?
output: 50%

input: Can you look up the measured Population Apoptotic (%) of N#CCNC(=O)c1ccc(-c2ccnc(Nc3ccc(N4CCOCC4)cc3)n2)cc1 [MOMELOTINIB] for me?
output: 60%

###

Measured Population Tubulin-Different-Phenotype (%) by item
Test system: U2OS
Experiment: Multiplex assay against U2OS
Type: toxicity, cell-based
Settings: human, 24 h, 1 µM, compound concentration 1 uM, replicate 1
Quick reminder: number only, in %, skip the unit.

Recorded Population Tubulin-Different-Phenotype (%), per entry:
CC[C@H](Nc1ncnc2[nH]cnc12)c1nc2cccc(F)c2c(=O)n1-c1ccccc1: 17
C=CC(=O)Nc1cc(-n2c(=O)ccc3cnc4ccc(-c5ccc(NS(C)(=O)=O)cc5)cc4c32)ccc1C: 12
CC(C)[C@H](CO)Nc1nc(Nc2cccc(Cl)c2)c2ncn(C(C)C)c2n1: 6

input: Can you look up the measured Population Tubulin-Different-Phenotype (%) of "CCCc1cc(C)[nH]c(=O)c1CNC(=O)c1cc(-c2ccc(N3CCN(C(C)C)CC3)nc2)cc2c1cnn2C(C)C" for me?
output: 79

input: Can you look up the measured Population Tubulin-Different-Phenotype (%) of "Cc1ccc(NC(=O)Nc2cc(C(F)(F)F)ccc2F)cc1Nc1ccc2c(c1)NC(=O)/C2=C\c1ccc[nH]1" for me?
output: 36

input: Can you look up the measured Population Tubulin-Different-Phenotype (%) of "CC(/C=C1\SC(=S)N(CCCC(=O)Nc2ccc(C(=O)O)c(O)c2)C1=O)=C\c1ccccc1" for me?
output: 5

input: Can you look up the measured Population Tubulin-Different-Phenotype (%) of "Cc1c(Nc2ccc(S(=O)(=O)N3CCN(C)CC3)cc2F)nc2ccc(-c3cnn(C4CC4)c3)cn2c1=O" for me?
output: 17

input: Can you look up the measured Population Tubulin-Different-Phenotype (%) of "Oc1cccc(-c2nc(N3CCOCC3)c3oc4ncccc4c3n2)c1" for me?
output: 11

Values compiled from ChEMBL document CHEMBL4689842.
